Data origin: patent US6794400B2

Test system: T-47D
Test: Caspase cascade activation (N-(Ac-DEVD)-N'-ethoxycarbonyl-R110 fluorogenic substrate) in T-47D cells
Type: cell-based, human
Settings: Homo sapiens, T47D, 48 h incubation, read-out: Caspase potency EC50
endpoint: EC50 (nM)

1 = Cc1cccc(C=NNC(=S)NC2CC3C=CC2C3)n1 (centres unmarked)
2 = S=C(NN=Cc1ccccn1)NC1CC2C=CC1C2 (centres unmarked)
**Q:** Hello, I am sorting some records. Could you say if 1 or 2 has the smaller EC50 value? Give the chosen item's label as your response.
**A:** 2
(2: 360 nM, 1: 866 nM)
